measured-property: melting point (°C)
Give the number; °C is assumed, so skip it.

**Query** Specify reported melting point for the compound shown: COc1cccc(-c2cnc(-c3ccc(C#N)cc3)nc2C2CCN(CC(C)(C)C#N)CC2)c1 [Compound 86]
**Result** 207

**Query** Determine from records and report melting point for C#CCN1CCC(c2nc(-c3ccncc3)ncc2-c2cccc(OC)c2)CC1 [Compound 49]
**Result** 160

**Query** Please indicate melting point recorded for COc1cccc(-c2cnc(-c3ccncc3)nc2C2CCN(CC(C)(C)C#N)CC2)c1 [Compound 57]
**Result** 117

**Query** Dear colleague, please send me the reported melting point for COc1cccc(-c2cnc(-c3ccncc3)nc2C2CCN(Cc3ccccc3C(F)(F)F)CC2)c1 [Compound 46] when you can.
**Result** 144
